Tested on: Bacillus subtilis ATCC 6633
assay.overview: Minimum biofilm eradication assay
Format: cell-based
Catalogue of MBEC values
Give just the number in µg/mL; leave the unit off.

molecule: COc1cc(NC(C)CCCNC(=O)/C=C/C(=O)Nc2cccc(F)c2)c2ncccc2c1 (stereo not drawn)
readout.type: MBEC
measured.number: 50

Any idea what its MBEC is? The molecule is COc1cc(NC(C)CCCN)c2ncccc2c1 (stereo not drawn) [PQ, primaquine, reference compound]
80

----------
The entries below are paired with their reported IC50.
System: NCI-H460 (lung carcinoma)
assay.overview: Antiproliferative screening (cytostatic activity)
Assay type: cell-based
test.context: Homo sapiens, NCI-H460; 72 h, IncuCyte imaging; read-out: IC50 NCI-H460

Answered cases to consult:
molecule: COc1cc(NC(C)CCCNC(=O)/C=C/C(=O)Nc2cccc(C(F)(F)F)c2)c2ncccc2c1 (stereo not shown)
target.desc: NCI-H460 (lung carcinoma)
readout.type: IC50
result: 34.2 µM

molecule: COc1cc(NC(C)CCCNC(=O)/C=C/C(=O)Nc2ccc(C(F)(F)F)cc2)c2ncccc2c1 (stereo not shown)
target.desc: NCI-H460 (lung carcinoma)
readout.type: IC50
result: > 100 µM

molecule: COc1cc(NC(C)CCCNC(=O)/C=C/C(=O)Nc2ccc(Cl)cc2)c2ncccc2c1 (stereo not shown)
target.desc: NCI-H460 (lung carcinoma)
readout.type: IC50
result: > 100 µM

molecule: COc1cc(NC(C)CCCNC(=O)/C=C/C(=O)Nc2cccc(F)c2)c2ncccc2c1 (stereo not shown)
target.desc: NCI-H460 (lung carcinoma)
readout.type: IC50
result: 15.5 µM

molecule: COc1cc(NC(C)CCCNC(=O)/C=C/C(=O)Nc2cccc(Cl)c2)c2ncccc2c1 (stereo not shown)
target.desc: NCI-H460 (lung carcinoma)
readout.type: IC50
result: 43.7 µM

Record request: IC50 value, item COc1cc([C@@H]2c3cc4c(cc3[C@@H](O[C@@H]3O[C@@H]5CO[C@@H](C)O[C@H]5[C@H](O)[C@H]3O)[C@H]3COC(=O)[C@H]23)OCO4)cc(OC)c1O [EPEG, etoposide, reference compound]
0.09 µM

Which IC50 value is on record for COc1cc(NC(C)CCCNC(=O)/C=C/C(=O)Nc2ccc(F)cc2)c2ncccc2c1 (stereo not shown) ?
29.1 µM

----------
assay.overview: in vitro
test.context: African green monkey
// reported CC50 per item

compound: COc1cc(NC(C)CCCNC(=O)/C=C/C(=O)Nc2ccc(F)cc2)c2ncccc2c1 (centres unmarked) [Compound 4b]
CC50: > 50 µg/mL
--
compound: COc1cc(NC(C)CCCNC(=O)/C=C/C(=O)Nc2ccc(Cl)cc2)c2ncccc2c1 (centres unmarked) [Compound 4d]
CC50: > 50 µg/mL
--
compound: COc1cc(NC(C)CCCNC(=O)/C=C/C(=O)Nc2cccc(Cl)c2)c2ncccc2c1 (centres unmarked) [Compound 4c]
CC50: > 50 µg/mL

With those in mind, consider the next compound.
Sample COc1cc(NC(C)CCCNC(=O)/C=C/C(=O)Nc2cccc(F)c2)c2ncccc2c1 (centres unmarked) [Compound 4a] — what was its CC50?
46.9 µg/mL

----------
Record type: MIC measurement. Applies to: Staphylococcus aureus ATCC 6538
Note: unit µg/mL is implicit; provide only the numeric part.

compound: COc1cc(NC(C)CCCNC(=O)/C=C/C(=O)Nc2cccc(C(F)(F)F)c2)c2ncccc2c1 (stereo not shown) [Compound 4e]
target.desc: Staphylococcus aureus ATCC 6538
MIC [µg/mL]: 50

compound: COc1cc(NC(C)CCCNC(=O)/C=C/C(=O)Nc2ccc(C(F)(F)F)cc2)c2ncccc2c1 (stereo not shown) [Compound 4f]
target.desc: Staphylococcus aureus ATCC 6538
MIC [µg/mL]: 50

Observed MIC on Staphylococcus aureus ATCC 6538 for COc1cc(NC(C)CCCNC(=O)/C=C/C(=O)Nc2ccc(F)cc2)c2ncccc2c1 (stereo not shown) [Compound 4b] , please.
12.5

Please state recorded MIC (tested on Staphylococcus aureus ATCC 6538) of CN(C)[C@@H]1C(O)=C(C(N)=O)C(=O)[C@@]2(O)C(O)=C3C(=O)c4c(O)cccc4[C@@](C)(O)[C@H]3C[C@@H]12 [TC, tetracycline, reference compound]
0.3

Test system Staphylococcus aureus ATCC 6538; read-out MIC; what value for COc1cc(NC(C)CCCNC(=O)/C=C/C(=O)Nc2ccc(Cl)cc2)c2ncccc2c1 (stereo not shown) [Compound 4d] ?
6.1

Given the entry COc1cc(NC(C)CCCNC(=O)/C=C/C(=O)Nc2cccc(Cl)c2)c2ncccc2c1 (stereo not shown) [Compound 4c] , what MIC was observed with Staphylococcus aureus ATCC 6538?
12.5

----------
Test system: Coxsackie Virus B4
assay.overview: Antiviral activity in Vero cell cultures
Type: cell-based
test.context: Enterovirus B, B4; Vero cells, MTS; read-out: EC50 Coxsackie Virus B4, MTS
pEC50: −log10 of the molar value.
readout.type: pEC50

molecule: COc1c(C)c2c(c(O)c1C/C=C(\C)CCC(=O)O)C(=O)OC2 [MPA, mycophenolic acid, reference compound]
target.desc: Coxsackie Virus B4
pEC50: < 4.00

Given COc1cc(NC(C)CCCNC(=O)/C=C/C(=O)Nc2cccc(Cl)c2)c2ncccc2c1 (centres unmarked) , state its recorded pEC50.
< 4.30

May I ask what pEC50 has been recorded for COc1cc(NC(C)CCCNC(=O)/C=C/C(=O)Nc2ccc(Cl)cc2)c2ncccc2c1 (centres unmarked) ?
< 4.30

# pEC50 lookup, item COc1cc(NC(C)CCCNC(=O)/C=C/C(=O)Nc2cccc(F)c2)c2ncccc2c1 (centres unmarked)
< 4.30

Give the measured pEC50 of COc1cc(NC(C)CCCNC(=O)/C=C/C(=O)Nc2ccc(F)cc2)c2ncccc2c1 (centres unmarked) .
< 4.30

Field request: pEC50 | item: NC(=O)c1ncn([C@@H]2O[C@H](CO)[C@@H](O)[C@H]2O)n1 [RIB, ribavirin, reference compound]
< 3.60

Which pEC50 is listed for COc1cc(NC(C)CCCNC(=O)/C=C/C(=O)Nc2cccc(C(F)(F)F)c2)c2ncccc2c1 (centres unmarked) ?
5.51

Return reported pEC50; argument: COc1cc(NC(C)CCCNC(=O)/C=C/C(=O)Nc2ccc(C(F)(F)F)cc2)c2ncccc2c1 (centres unmarked)
< 4.30

----------
System: Capan-1 (pancreatic adenocarcinoma)
assay.overview: Antiproliferative screening (cytostatic activity)
Assay type: cell-based
test.context: Homo sapiens, CAPAN-1, 72 h, read-out: IC50 Capan-1
readout.type: IC50 (µM)
Give the value, in units of µM, as a plain number.

Value lookup for IC50; key = COc1cc(NC(C)CCCN)c2ncccc2c1 (stereo not shown) [PQ, primaquine, reference compound]
18.7

----------
The entries below come with measured EC50 values attached.
Test system: Para-Influenza-3 Virus
assay.overview: organism not typed
Type: cell-based
test.context: Vero cells, visual CPE score; read-out: EC50 Para-Influenza-3 Virus, Visual CPE Score

molecule: COc1cc(NC(C)CCCNC(=O)/C=C/C(=O)Nc2cccc(Cl)c2)c2ncccc2c1 (centres unmarked)
result: > 50 µM

Proceeding to the next molecule to report its EC50.
Give the measured EC50 of COc1cc(NC(C)CCCNC(=O)/C=C/C(=O)Nc2cccc(C(F)(F)F)c2)c2ncccc2c1 (centres unmarked) .
> 50 µM

----------
System: K-562 (chronic myeloid leukemia)
assay.overview: Antiproliferative screening (cytostatic activity)
Format: cell-based
test.context: Homo sapiens, K562, 72 h, read-out: IC50 K-562
readout.type: IC50

If you can, please state the reported IC50 value of COc1cc(NC(C)CCCN)c2ncccc2c1 (stereo not shown) [PQ, primaquine, reference compound] .
35.2 µM

----------
# MIC measurements, system: Candida albicans ATCC 90028

Fill in the blank: the reported MIC of COc1cc(NC(C)CCCNC(=O)/C=C/C(=O)Nc2ccc(Cl)cc2)c2ncccc2c1 (stereo not shown) is ____.
12.5 µg/mL

Recorded MIC of COc1cc(NC(C)CCCNC(=O)/C=C/C(=O)Nc2cccc(F)c2)c2ncccc2c1 (stereo not shown) , please.
> 100 µg/mL

Need MIC, item COc1cc(NC(C)CCCNC(=O)/C=C/C(=O)Nc2ccc(F)cc2)c2ncccc2c1 (stereo not shown)
> 100 µg/mL

Please look up its MIC: COc1cc(NC(C)CCCNC(=O)/C=C/C(=O)Nc2cccc(C(F)(F)F)c2)c2ncccc2c1 (stereo not shown)
> 100 µg/mL

Find the recorded MIC belonging to COc1cc(NC(C)CCCNC(=O)/C=C/C(=O)Nc2cccc(Cl)c2)c2ncccc2c1 (stereo not shown) and report it.
> 100 µg/mL

Looking for the measured MIC of COc1cc(NC(C)CCCNC(=O)/C=C/C(=O)Nc2ccc(C(F)(F)F)cc2)c2ncccc2c1 (stereo not shown) , can you help?
> 100 µg/mL

Would you mind telling me what MIC value was observed for C[C@@H]1[C@H](O)[C@@H](C)/C=C/C=C/C=C/C=C/C=C/C=C/C=C/[C@H](O[C@@H]2O[C@H](C)[C@@H](O)[C@H](N)[C@@H]2O)C[C@@H]2O[C@](O)(C[C@@H](O)C[C@@H](O)[C@H](O)CC[C@@H](O)C[C@@H](O)CC(=O)O[C@H]1C)C[C@H](O)[C@H]2C(=O)O [Amph, amphotericin B, reference compound] ?
0.5 µg/mL
